Quick reference for fold change (FC) among some molecules
# SYSTEM_NAME: Gamma-aminobutyric acid receptor subunit alpha-1 (Homo sapiens) (UniProt P14867)
# Sequence (P14867 whole entry): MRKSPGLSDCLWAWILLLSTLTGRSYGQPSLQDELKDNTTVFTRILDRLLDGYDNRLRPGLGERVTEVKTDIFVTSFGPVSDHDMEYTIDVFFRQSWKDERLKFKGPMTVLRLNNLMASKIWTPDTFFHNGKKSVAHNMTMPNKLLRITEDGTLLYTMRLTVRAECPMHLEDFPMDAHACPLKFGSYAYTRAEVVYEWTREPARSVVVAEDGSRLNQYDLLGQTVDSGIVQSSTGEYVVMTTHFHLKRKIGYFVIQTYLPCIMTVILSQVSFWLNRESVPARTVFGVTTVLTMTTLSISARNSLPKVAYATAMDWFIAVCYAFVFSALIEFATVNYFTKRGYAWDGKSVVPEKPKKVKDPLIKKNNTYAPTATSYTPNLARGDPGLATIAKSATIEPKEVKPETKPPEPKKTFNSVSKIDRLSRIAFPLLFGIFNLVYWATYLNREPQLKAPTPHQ
# ASSAY_PROTOCOL: Binding affinity to GABA-A alpha1 (unknown origin) assessed as increase in induced current relative to control

Past entries and their recorded results:
COMPOUND_STRING | MEAS_VALUE
C#Cc1ccc2c(c1)C(c1ccccc1F)=N[C@H](C)c1c(C(=O)OCC)ncn1-2 | 0.25
CC(C)(O)c1cnn2c(-c3ccc(F)c(-c4c(F)cccc4C#N)c3)cnc2n1 | 0.03
C#Cc1ccc2c(c1)C(c1ccccn1)=NCc1c(-c3cnco3)ncn1-2 | 0.35
Cn1ncnc1COc1nn2c(-c3cc(F)ccc3F)nnc2cc1C(C)(C)C | 0.02
C#Cc1ccc2c(c1)C(c1ccccc1F)=N[C@H](C)c1c(C(=O)NC3CC3)ncn1-2 | 1.22

Item under review: CC(C)(O)c1ccc2c(c1)ncn2-c1cccc(-c2ccccc2C#N)c1 . Reported fold change (FC)? 0.08

Item under review: C#Cc1ccc2c(c1)C(c1ccccn1)=NCc1c(C(=O)OCC)ncn1-2 . Reported fold change (FC)? 0.27

Source of measurements: ChEMBL document CHEMBL4402545
